Listed next: entries and their corresponding log10 of IC50.
study-target: KRAS-G12D (Homo sapiens, UniProt P01116, G12D)
Sequence (P01116 with tags, fused parts or gaps isoform P01116-2 G12D): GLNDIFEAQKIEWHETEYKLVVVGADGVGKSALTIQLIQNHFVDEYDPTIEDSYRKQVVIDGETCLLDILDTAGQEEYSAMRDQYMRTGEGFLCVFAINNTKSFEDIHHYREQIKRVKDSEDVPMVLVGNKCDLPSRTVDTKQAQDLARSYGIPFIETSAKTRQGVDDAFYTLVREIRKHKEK
assay-protocol: SOS-catalyzed nucleotide exchange assay (Procedure A, TR-FRET), KRAS-G12D
Assay type: biochemical
test-settings: nucleotide exchange, read-out: KRAS G12D GNE IC50
result-type: log10 of IC50 (log10 of the value in nM)

{"compound": "Cc1cc2[nH]ncc2c(-c2nccc3c2sc2nc(OC[C@@]45CCCN4C[C@H](F)C5)nc(N4CCOC[C@@](C)(O)C4)c23)c1C(F)(F)F [Ex-126]", "recorded-measurement": 1.54}
{"compound": "COC1CC2(C1)CN(C[C@@]1(COc3nc(N4CCOC[C@@](C)(O)C4)c4c(n3)sc3c(-c5c(C6(F)CC6)c(Cl)cc6[nH]ncc56)nccc34)CC1(F)F)C2 [Ex-263]", "recorded-measurement": 0.48}
{"compound": "Cc1cc2[nH]ncc2c(-c2nccc3c2sc2nc(OC[C@@]45CCCN4C[C@H](F)C5)nc(N4CCOC[C@@](C)(O)C4)c23)c1OC(F)(F)Cl [Ex-39]", "recorded-measurement": 0.97}
{"compound": "Cc1cc2[nH]ncc2c(-c2nccc3c2sc2nc(OC[C@@]45CCCN4C[C@H](F)C5)nc(N4CCC[C@@](C)(O)C4)c23)c1C(F)(F)F [Ex-128]", "recorded-measurement": 1.99}
{"compound": "C[C@@]1(O)COCCN(c2nc(OC[C@]3(CN4C[C@H]5CCO[C@H]5C4)CC3(F)F)nc3sc4c(-c5c(C6(F)CC6)c(Cl)cc6[nH]ncc56)nccc4c23)C1 [Ex-254]", "recorded-measurement": 0.84}
{"compound": "Cn1ccc2cc3[nH]ncc3c(-c3nccc4c3sc3nc(OC[C@@]56CCCN5C[C@H](F)C6)nc(N5CCOC[C@@](C)(O)C5)c34)c21 [Ex-46]", "recorded-measurement": 1.86}
{"compound": "Cc1cc2[nH]ncc2c(-c2nccc3c2oc2nc(OC[C@]4(CN(C)C)CC4(F)F)nc(N4CCOC[C@@](C)(O)C4)c23)c1C(F)F [Ex-292]", "recorded-measurement": 2.24}
{"compound": "C#Cc1c(F)sc2cc3[nH]ncc3c(-c3nccc4c3sc3nc(OC[C@@]56CCCN5C[C@H](F)C6)nc(N5CCOC[C@@](C)(O)C5)c34)c12 [Ex-164]", "recorded-measurement": 0.17}
{"compound": "[2H]C1([2H])CC[C@]2(COc3nc(N4CCOC[C@@](C)(O)C4)c4c(n3)sc3c(-c5c(C6CC6)c(Cl)cc6[nH]ncc56)nccc34)N1C[C@H](F)C2([2H])[2H] [Ex-210]", "recorded-measurement": 0.67}
{"compound": "CO[C@H]1C[C@@H](COc2nc(N3CCOC[C@@](C)(O)C3)c3c(n2)sc2c(-c4c(C5CC5)c(C(F)(F)F)cc5[nH]ncc45)nccc23)N(C)C1 [Ex-84]", "recorded-measurement": 2.83}
{"compound": "CC(C)(C)c1c(Cl)cc2[nH]ncc2c1-c1nccc2c1sc1nc(OC[C@@]34CCCN3C[C@H](F)C4)nc(N3CCOC[C@@](C)(O)C3)c12 [Ex-156]", "recorded-measurement": 0.72}
{"compound": "CN(C)C[C@@]1(COc2nc(N3CCOC[C@@](C)(O)C3)c3c(n2)sc2c(-c4c(C5(F)CC5)c(Cl)cc5[nH]ncc45)nccc23)CC1(F)F [Ex-132]", "recorded-measurement": 0.74}

* * *

study-target: KRAS G12C (amino acids 1-169) (Homo sapiens, UniProt P01116, G12C)
Sequence (P01116 with tags, fused parts or gaps isoform P01116-2 G12C): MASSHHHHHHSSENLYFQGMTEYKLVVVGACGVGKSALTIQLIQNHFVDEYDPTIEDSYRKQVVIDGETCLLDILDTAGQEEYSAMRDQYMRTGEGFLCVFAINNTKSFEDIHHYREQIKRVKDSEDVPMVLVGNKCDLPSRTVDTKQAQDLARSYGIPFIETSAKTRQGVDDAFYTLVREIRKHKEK
assay-protocol: SOS-catalyzed nucleotide exchange assay (Procedure B, BODIPY FL GDP displacement), KRAS G12C
test-settings: read-out: KRAS G12C GNE IC50

{"molecule": "C[C@@]1(O)COCCN(c2nc(OC[C@@]34CCCN3C[C@H](F)C4)nc3sc4c(-c5c(-c6cnco6)c(Cl)cc6[nH]ncc56)nccc4c23)C1", "IC50 [nM]": 56}
{"molecule": "Cc1cc2[nH]ncc2c(-c2nccc3c2sc2nc(OC[C@@]45CCCN4C[C@H](F)C5)nc(N4CCOCC(C)C4)c23)c1C(F)(F)F (stereo partly drawn)", "IC50 [nM]": 1260}
{"molecule": "CC1(C)Cc2cc3[nH]ncc3c(-c3nccc4c3sc3nc(OC[C@@]56CCCN5C[C@H](F)C6)nc(N5CCOC[C@@](C)(O)C5)c34)c2C1", "IC50 [nM]": 518}
{"molecule": "Cc1cc2[nH]ncc2c(-c2nccc3c2sc2nc(OC[C@@]45CCCN4C[C@H](F)C5)nc(NC45CC(C4)C5)c23)c1C(F)(F)F", "IC50 [nM]": 787}
{"molecule": "CC(=O)N1CC(Nc2nc(OC[C@@]34CCCN3C[C@H](F)C4)nc3sc4c(-c5c(C(F)(F)F)c(C)cc6[nH]ncc56)nccc4c23)C1", "IC50 [nM]": 340}
{"molecule": "C[C@@]1(O)COCCN(c2nc(OC[C@@]34CCCN3C[C@H](F)C4)nc3sc4c(-c5c(C6=CCOC6)c(Cl)cc6[nH]ncc56)nccc4c23)C1", "IC50 [nM]": 819}

* * *

study-target: KRAS-G12V (Homo sapiens, UniProt P01116, G12V)
Sequence (P01116 with tags, fused parts or gaps isoform P01116-2 G12V): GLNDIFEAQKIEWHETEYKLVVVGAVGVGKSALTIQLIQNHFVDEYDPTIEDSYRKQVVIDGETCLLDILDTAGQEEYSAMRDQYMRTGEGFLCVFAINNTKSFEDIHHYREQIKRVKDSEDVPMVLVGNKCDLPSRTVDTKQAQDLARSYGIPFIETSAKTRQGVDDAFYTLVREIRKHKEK
assay-protocol: SOS-catalyzed nucleotide exchange assay (Procedure A, TR-FRET), KRAS-G12V
Type: biochemical
test-settings: nucleotide exchange, read-out: KRAS G12V GNE IC50

{"compound": "C[C@@]1(O)COCCN(c2nc(OC[C@@]34CCCN3C[C@H](F)C4)nc3c(F)c4c(-c5c(C6CC6)c(Cl)cc6[nH]ncc56)nccn4c23)C1 [Ex-305]", "IC50 (µM)": 0.0238}
{"compound": "C[C@@]1(O)COCCN(c2nc(OC[C@@]34CCCN3C/C(=C\\F)C4)nc3sc4c(-c5c(C6(F)CC6)c(C(F)(F)F)cc6[nH]ncc56)nccc4c23)C1 [Ex-56]", "IC50 (µM)": 0.0326}
{"compound": "Cc1cccc(-c2nccc3c2sc2nc(OC[C@@]45CCCN4C[C@H](F)C5)nc(N4CCOC[C@@](C)(O)C4)c23)c1C [Ex-120]", "IC50 (µM)": 0.269}

* * *

study-target: KRAS-G12C (C51S/C80L/C118S) (Homo sapiens, UniProt P01116, C118S/C51S/C80L/G12C)
Sequence (P01116 with tags, fused parts or gaps isoform P01116-2 G12C/C51S/C80L/C118S): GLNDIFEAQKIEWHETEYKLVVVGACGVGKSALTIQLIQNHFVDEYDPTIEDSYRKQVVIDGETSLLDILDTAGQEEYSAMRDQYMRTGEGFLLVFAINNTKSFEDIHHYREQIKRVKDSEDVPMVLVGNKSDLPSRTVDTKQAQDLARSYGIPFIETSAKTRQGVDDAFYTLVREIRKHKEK
assay-protocol: SOS-catalyzed nucleotide exchange assay (Procedure A, TR-FRET), KRAS-G12C
Format: biochemical
test-settings: nucleotide exchange, Procedure A; read-out: KRAS G12C GNE IC50
Listed next: entries and their corresponding IC50.

{"compound": "Cc1cc2[nH]ncc2c(-c2nccc3c2sc2nc(OC[C@@]45CCCN4C[C@H](F)C5)nc(N4CCOC[C@@](C)(O)C4)c23)c1Cl [Ex-32]", "IC50 (nM)": 91.7}
{"compound": "C=Cc1c(C)cc2[nH]ncc2c1-c1nccc2c1sc1nc(OC[C@@]34CCCN3C[C@H](F)C4)nc(N3CCOC[C@@](C)(O)C3)c12 [Ex-35]", "IC50 (nM)": 29.2}
{"compound": "Cc1cc2[nH]nc(C)c2c(-c2nccc3c4c(N5CCOC[C@@](C)(O)C5)nc(OC[C@@]56CCCN5C[C@H](F)C6)nc4n(C)c23)c1C(F)F (single isomer, unassigned) [Ex-8]", "IC50 (nM)": 1190}
{"compound": "Cc1cc2[nH]ncc2c(-c2nccc3c4c(N5CCCC6(CC(=O)N6)C5)nc(OC[C@@]56CCCN5C[C@H](F)C6)nc4n(C)c23)c1C(F)(F)F (single isomer, unassigned) [Ex-21]", "IC50 (nM)": 25.3}
{"compound": "Cc1cc(-c2nccc3c2sc2nc(OC[C@@]45CCCN4C[C@H](F)C5)nc(N4CCOC[C@@](C)(O)C4)c23)c2cn[nH]c2c1 [Ex-37]", "IC50 (nM)": 1480}
{"compound": "Cc1cc2[nH]ncc2c(-c2nccc3c2sc2nc(OC[C@@]45CCCN4C[C@H](F)C5)nc(N4CCOC[C@@](C)(O)C4)c23)c1C12CC(C1)C2 [Ex-43]", "IC50 (nM)": 24.3}

* * *

study-target: KRAS-G12D (Homo sapiens, UniProt P01116, G12D)
assay-protocol: SOS-catalyzed nucleotide exchange assay (Procedure A, TR-FRET), KRAS-G12D
Assay type: biochemical
test-settings: nucleotide exchange, read-out: KRAS G12D GNE IC50
pIC50: −log10 of the molar value.
result-type: pIC50

{"compound": "C[C@@]1(O)COCCN(c2nc(OC[C@]3(CN4CCOC5(CC5)C4)CC3(F)F)nc3sc4c(-c5c(C6(F)CC6)c(Cl)cc6[nH]ncc56)nccc4c23)C1", "recorded-measurement": 7.19}
{"compound": "Cc1cc2[nH]ncc2c(-c2nncc3c2sc2nc(OC[C@@]45CCCN4C[C@H](F)C5)nc(N4CCOC[C@@](C)(O)C4)c23)c1C1CC1", "recorded-measurement": 8.29}
{"compound": "Cc1c(C(F)(F)F)c(-c2nccc3c2sc2nc(OC[C@@]45CCCN4C[C@H](F)C5)nc(N4CCOC[C@@](C)(O)C4)c23)c2cn[nH]c2c1F", "recorded-measurement": 6.85}
{"compound": "Cn1c2nc(OC[C@@]34CCCN3C[C@H](F)C4)nc(N3CCOC[C@@](C)(O)C3)c2c2ccnc(-c3c(C4CC4)c(Cl)cc4[nH]ncc34)c21 (single isomer, unassigned)", "recorded-measurement": 7.45}
{"compound": "C[C@@]1(O)COCCN(c2nc(OC[C@@]34CCCN3C[C@H](F)C4)nc3sc4c(-c5c6c(cc7[nH]ncc57)CCC65CC5)nccc4c23)C1", "recorded-measurement": 7.73}
{"compound": "C[C@@]1(O)COCCN(c2nc(OC[C@@]34C[C@H](F)CN3CC3(CC3)C4)nc3sc4c(-c5c(C6CC6)c(Cl)cc6[nH]ncc56)nccc4c23)C1", "recorded-measurement": 7.08}
{"compound": "Cc1cc2[nH]ncc2c(-c2nccc3c2sc2nc(OC[C@@]45CCCN4C[C@H](F)C5)nc(N4CCOC[C@@](C)(O)C4)c23)c1C#N", "recorded-measurement": 6.58}
{"compound": "C[C@@H]1CC[C@@H](COc2nc(N3CCOC[C@@](C)(O)C3)c3c(n2)sc2c(-c4c(C5CC5)c(C(F)(F)F)cc5[nH]ncc45)nccc23)N1C", "recorded-measurement": 7.84}
{"compound": "CN1CCc2cc3[nH]ncc3c(-c3nccc4c3sc3nc(OC[C@@]56CCCN5C[C@H](F)C6)nc(N5CCOC[C@@](C)(O)C5)c34)c21", "recorded-measurement": 7.18}
{"compound": "C[C@@H]1C[C@@H](COc2nc(N3CCOC[C@@](C)(O)C3)c3c(n2)sc2c(-c4c(C5CC5)c(C(F)(F)F)cc5[nH]ncc45)nccc23)N(C)C1", "recorded-measurement": 7.10}
{"compound": "C=C(C)c1c(C)cc2[nH]ncc2c1-c1nncc2c1sc1nc(OC[C@@]34CCCN3C[C@H](F)C4)nc(N3CCOC[C@@](C)(O)C3)c12", "recorded-measurement": 7.83}
{"compound": "C/C=C(\\C)c1c(C)cc2[nH]ncc2c1-c1nccc2c1sc1nc(OC[C@@]34CCCN3C[C@H](F)C4)nc(N3CCOC[C@@](C)(O)C3)c12", "recorded-measurement": 7.16}
{"compound": "C=Cc1c(C)cc2[nH]ncc2c1-c1nccc2c1sc1nc(OC[C@@]34CCCN3C[C@H](F)C4)nc(N3CCOC[C@@](C)(O)C3)c12", "recorded-measurement": 7.50}
{"compound": "Cc1cc2[nH]ncc2c(-c2nccc3c2sc2nc(OC[C@@]45CCCN4C[C@H](F)C5)nc(N4CCCC5(CC(=O)N5)C4)c23)c1C(F)(F)F (some centres unmarked)", "recorded-measurement": 7.12}
{"compound": "C[C@@]1(O)COCCN(c2nc(OC[C@]3(CN4C[C@H]5CCCO[C@H]5C4)CC3(F)F)nc3sc4c(-c5c(C6(F)CC6)c(Cl)cc6[nH]ncc56)nccc4c23)C1", "recorded-measurement": 8.32}
{"compound": "Cc1n[nH]c2cc(Cl)c(C(F)F)c(-c3nccc4c5c(N6CCOC[C@@](C)(O)C6)nc(OC[C@@]67CCCN6C[C@H](F)C7)nc5n(C)c34)c12 (single isomer, unassigned)", "recorded-measurement": 5.44}
{"compound": "Cc1cc2[nH]ncc2c(-c2nccc3c2sc2nc(OC[C@@]45CCCN4C[C@H](F)C5)nc(N4CCOC[C@@](C)(O)C4)c23)c1C1CC1(F)F (some centres unmarked)", "recorded-measurement": 7.71}
{"compound": "C[C@H]1CN(C[C@@]2(COc3nc(N4CCOC[C@@](C)(O)C4)c4c(n3)sc3c(-c5c(C6(F)CC6)c(Cl)cc6[nH]ncc56)nccc34)CC2(F)F)[C@@H](C)CO1", "recorded-measurement": 7.01}
{"compound": "C/C=C1\\CCCc2cc3[nH]ncc3c(-c3nccc4c3sc3nc(OC[C@@]56CCCN5C[C@H](F)C6)nc(N5CCOC[C@@](C)(O)C5)c34)c21", "recorded-measurement": 7.63}
{"compound": "C[C@@H]1CN(C[C@@]2(COc3nc(N4CCOC[C@@](C)(O)C4)c4c(n3)sc3c(-c5c(C6(F)CC6)c(Cl)cc6[nH]ncc56)nccc34)CC2(F)F)C[C@H](C)O1", "recorded-measurement": 7.01}
{"compound": "C#Cc1c(F)ccc2nc(N)cc(-c3nccc4c3sc3nc(OC[C@@]56CCCN5C[C@H](F)C6)nc(N5CCOC[C@@](C)(O)C5)c34)c12", "recorded-measurement": 6.04}
{"compound": "Cc1cc2[nH]ncc2c(-c2nccc3c2oc2nc(OC[C@]4(CN(C)C)CC4(F)F)nc(N4CCOC[C@@](C)(O)C4)c23)c1C(F)(F)F", "recorded-measurement": 6.82}
{"compound": "C[C@@]1(O)COCCN(c2nc(OC[C@@]34CCCN3C/C(=C\\F)C4)nc3sc4c(-c5c(C6(F)CC6)c(Cl)cc6[nH]ncc56)nccc4c23)C1", "recorded-measurement": 8.49}
